compounds and their reported IC50
Molecular target: purified human HDAC6 (Homo sapiens)
Construct: purchased BPS Bioscience 5006
Sequence (Q9UBN7 whole entry): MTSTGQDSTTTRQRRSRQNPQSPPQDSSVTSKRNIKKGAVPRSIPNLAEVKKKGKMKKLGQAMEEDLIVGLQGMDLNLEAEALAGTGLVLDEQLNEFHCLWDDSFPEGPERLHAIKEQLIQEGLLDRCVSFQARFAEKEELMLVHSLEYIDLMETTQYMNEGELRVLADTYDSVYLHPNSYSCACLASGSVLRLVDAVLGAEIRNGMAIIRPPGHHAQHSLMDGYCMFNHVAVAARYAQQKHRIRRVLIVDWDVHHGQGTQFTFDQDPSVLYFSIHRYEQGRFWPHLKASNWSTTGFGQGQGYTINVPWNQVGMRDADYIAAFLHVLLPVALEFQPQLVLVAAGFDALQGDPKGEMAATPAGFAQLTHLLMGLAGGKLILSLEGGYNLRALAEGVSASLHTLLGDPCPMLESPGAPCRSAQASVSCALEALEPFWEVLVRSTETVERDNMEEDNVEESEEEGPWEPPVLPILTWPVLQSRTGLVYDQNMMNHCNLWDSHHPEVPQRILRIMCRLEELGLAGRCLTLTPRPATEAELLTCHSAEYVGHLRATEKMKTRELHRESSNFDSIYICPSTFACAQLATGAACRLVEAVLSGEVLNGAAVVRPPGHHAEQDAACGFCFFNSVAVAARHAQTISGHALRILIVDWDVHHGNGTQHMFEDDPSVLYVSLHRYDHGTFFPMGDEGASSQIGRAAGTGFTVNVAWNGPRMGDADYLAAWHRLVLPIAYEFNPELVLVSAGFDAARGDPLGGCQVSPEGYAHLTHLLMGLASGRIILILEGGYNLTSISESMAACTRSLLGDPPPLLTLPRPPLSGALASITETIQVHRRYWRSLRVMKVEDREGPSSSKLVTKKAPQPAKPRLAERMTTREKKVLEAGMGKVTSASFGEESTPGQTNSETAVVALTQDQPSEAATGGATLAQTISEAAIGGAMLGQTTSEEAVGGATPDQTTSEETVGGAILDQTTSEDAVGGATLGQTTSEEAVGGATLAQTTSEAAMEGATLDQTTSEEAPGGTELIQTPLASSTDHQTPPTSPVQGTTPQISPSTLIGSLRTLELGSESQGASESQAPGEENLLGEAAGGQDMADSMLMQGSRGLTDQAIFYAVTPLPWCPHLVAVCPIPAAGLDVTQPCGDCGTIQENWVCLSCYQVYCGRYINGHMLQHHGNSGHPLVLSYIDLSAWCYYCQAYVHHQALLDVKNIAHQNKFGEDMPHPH
Experiment: HDAC6 Enzyme Assay
Assay type: biochemical
Details: purified human HDAC6, substrate Ac-Arg-Gly-Lys(Ac)-AMC, 1 hour at 30° C.; reported as bins
Experimental: To measure the inhibition of HDAC6 activity, purified human HDAC6 (BPS Bioscience; Cat. No. 5006) is incubated with substrate Ac-Arg-Gly-Lys(Ac)-AMC peptide (Bachem Biosciences; Cat. No. 1-1925) for 1 hour at 30° C. in the presence of test compounds or vehicle DMSO control. […] Concentration response curves are generated by calculating the fluorescence increase in test compound-treated samples relative to DMSO-treated controls, and enzyme inhibition (IC50) values are determined from those curves.
METRIC NAME: IC50

1. CC(NS(=O)(=O)c1cc2ccccc2s1)c1ccc(C(=O)NO)cc1 (stereo not shown) [Compound I-369] | 0.1 to 0.5 µM
2. CCC[C@@H](NC(=O)NC12CC3CC(CC(C3)C1)C2)c1ccc(C(=O)NO)cc1 [Compound I-18] | < 0.1 µM
3. CC(NC(=O)Nc1ccc(C(F)(F)F)cc1Cl)c1ccc(C(=O)NO)cc1 (stereo not shown) [Compound I-163] | < 0.1 µM
4. COc1ccc(C(=O)NC(c2ccc(C(=O)NO)cc2)C(C)(C)C)cc1 (stereo not shown) [Compound I-352] | 0.1 to 0.5 µM
5. Cc1cc(C(=O)NC(c2ccc(C(=O)NO)cc2)C(C)(C)C)nn1C (stereo not shown) [Compound I-260] | 0.1 to 0.5 µM
6. Cc1ccc(NC(=O)NC(C)c2ccc(C(=O)NO)cc2)c(C)c1 (stereo not shown) [Compound I-383] | < 0.1 µM
7. C[C@H](NC(=O)c1cc2ccccc2n1C)c1cccc(C(=O)NO)c1 [Compound I-294] | 0.1 to 0.5 µM
8. CC(NC(=O)C1CCCC1)c1ccc(C(=O)NO)cc1 (stereo not shown) [Compound I-88] | < 0.1 µM
9. CCc1cc(C(=O)NC(c2ccc(C(=O)NO)cc2)C(C)(C)C)n(C)n1 (stereo not shown) [Compound I-318] | 0.1 to 0.5 µM
10. CC(NC(=O)Nc1cccc2nsnc12)c1ccc(C(=O)NO)cc1 (stereo not shown) [Compound I-293] | < 0.1 µM
11. COc1ccc(C(=O)N[C@@H](c2ccc(C(=O)NO)cc2)C(F)(F)F)cc1 [Compound I-122] | < 0.1 µM
12. Cc1ccc(NC(=O)NC(C)c2ccc(C(=O)NO)cc2)cc1C (stereo not shown) [Compound I-55] | < 0.1 µM
13. CC(NC(=O)c1ccc2nsnc2c1)c1ccc(C(=O)NO)cc1 (stereo not shown) [Compound I-233] | < 0.1 µM
14. CCC[C@@H](NC(=O)c1cc2ccccc2n1C)c1ccc(C(=O)NO)cc1 [Compound I-106] | < 0.1 µM
15. CC(NC(=O)c1cc2ccccc2s1)c1cccc(C(=O)NO)c1 (stereo not shown) [Compound I-97] | 0.1 to 0.5 µM
16. CC(NC(=O)C1(c2ccc(Cl)cc2)CCC1)c1ccc(C(=O)NO)cc1 (stereo not shown) [Compound I-110] | < 0.1 µM
17. CC(C)(C)C(NC(=O)c1cc2ccccc2s1)c1ccc(C(=O)NO)cc1 (stereo not shown) [Compound I-308] | < 0.1 µM
18. CC(C)(C)c1ccc(C(=O)NC(c2ccc(C(=O)NO)cc2)C(C)(C)C)cc1 (stereo not shown) [Compound I-377] | 0.1 to 0.5 µM
19. CCC[C@@H](NC(=O)C1(C)CCCCC1)c1ccc(C(=O)NO)cc1 [Compound I-387] | < 0.1 µM
20. CC(NC(=O)c1ccc(-n2cccn2)cc1)c1ccc(C(=O)NO)cc1 (stereo not shown) [Compound I-185] | < 0.1 µM
21. CC(C)C(NC(=O)c1cnc2ccccc2n1)c1ccc(C(=O)NO)cc1 (stereo not shown) [Compound I-190] | < 0.1 µM
22. C[C@H](NC(=O)c1cc2ccccc2s1)c1cccc(C(=O)NO)c1 [Compound I-240] | 0.1 to 0.5 µM
23. CC(C)[C@@H](Nc1nc(-c2cc(-c3ccccc3)no2)cs1)c1ccc(C(=O)NO)cc1 [Compound I-519] | < 0.1 µM
24. CC(C)C(NC(=O)c1cc2cc(Cl)ccc2o1)c1ccc(C(=O)NO)cc1 (stereo not shown) [Compound I-130] | < 0.1 µM
25. CC(C)(C)C(NC(=O)c1cnccn1)c1ccc(C(=O)NO)cc1 (stereo not shown) [Compound I-87] | 0.1 to 0.5 µM
26. Cc1cc(C)c(C(=O)NC(c2ccc(C(=O)NO)cc2)C(C)(C)C)[nH]1 (stereo not shown) [Compound I-262] | 0.1 to 0.5 µM
27. COc1ccc(C)cc1NC(=O)NC(C)c1ccc(C(=O)NO)cc1 (stereo not shown) [Compound I-253] | < 0.1 µM
28. O=C(NO)c1ccc([C@@H](NC(=O)c2cc3ccccc3s2)C2CC2)cc1 [Compound I-249] | 0.1 to 0.5 µM
29. CC(C)C(NC(=O)c1ccn(C)n1)c1ccc(C(=O)NO)cc1 (stereo not shown) [Compound I-389] | < 0.1 µM
30. CC(NC(=O)Nc1ccc(C(F)(F)F)cc1)c1ccc(C(=O)NO)cc1 (stereo not shown) [Compound I-399] | < 0.1 µM
31. CC(C)C(NC(=O)c1ccc(C(C)(C)C)cc1)c1ccc(C(=O)NO)cc1 (stereo not shown) [Compound I-192] | 0.1 to 0.5 µM
